# testedOn: Cbl-b (Homo sapiens, UniProt Q13191)
# Sequence (Q13191 36-427): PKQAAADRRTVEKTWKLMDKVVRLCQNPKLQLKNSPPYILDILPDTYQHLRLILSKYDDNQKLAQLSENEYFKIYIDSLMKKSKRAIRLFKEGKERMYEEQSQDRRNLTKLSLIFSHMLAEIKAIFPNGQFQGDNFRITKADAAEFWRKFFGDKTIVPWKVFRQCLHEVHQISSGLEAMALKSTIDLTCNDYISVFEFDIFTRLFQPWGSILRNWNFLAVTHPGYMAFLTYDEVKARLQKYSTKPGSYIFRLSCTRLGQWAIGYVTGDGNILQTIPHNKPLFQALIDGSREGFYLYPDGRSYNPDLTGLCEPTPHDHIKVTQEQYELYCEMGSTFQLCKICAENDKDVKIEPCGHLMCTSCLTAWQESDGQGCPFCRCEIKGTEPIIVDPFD
# assay: Cbl-b activity assay (Cbl-b inhibition assay), TR-FRET of Cbl-b interaction with UbcH5B-Ub
# Format: biochemical
# assayContext: assay buffer with 100 mM NaCl, 60 nM Src kinase; read-out: Cbl-b activity IC50
pIC50: −log10 of the molar value.
Answer each item with its documented pIC50.

Fill in the blank: the reported pIC50 of CC1OCC1Oc1cc([C@H](C)Cc2nncn2C)cc(N2Cc3c(cccc3C(F)(F)F)C2=O)n1 (stereo partly drawn) is ____. 6.00 to 6.52

Query C[C@@H](Sc1nncn1C)c1cccc(N2Cc3c(cccc3C(F)(F)F)C2=O)c1 [Compound 166b] next 5.52 to 6.00

Note, next up: C[C@H](Sc1nncn1C)c1cccc(NC(=O)c2ccnc(C3CC3)n2)c1 > 7.00

Now give it for C[C@H](Sc1nncn1C)c1cccc(NC(=O)c2ccc3c(OCC(=O)O)cccc3n2)c1 too. 5.52 to 6.00

Same lookup for C[C@H](Cc1nncn1C)c1cccc(N2Cc3c(cc(C(=O)N4C[C@@H](O)C[C@H]4C)cc3C(F)(F)F)C2=O)c1 , please. > 7.00

Another: Cn1cnnc1CC1(c2cccc(N3Cc4c(cc(N5CCOC5=O)cc4C(F)(F)F)C3=O)c2)COC1 > 7.00

Then this compound: CC(c1cc2c(c(C3CC3)n1)CN(c1cccc(C3(Cc4nncn4C)COC3)c1)C2=O)N1CC2(CC2)C1 (stereo not drawn) > 7.00

Quick one: CC(Sc1nncn1C)c1ccc(F)c(NC(=O)c2cccc(C(F)(F)F)n2)c1 (stereo not drawn) 5.52 to 6.00

Next up: C[C@H](Cc1nncn1C)c1cccc(NC(=O)c2cc(C(=O)N[C@H]3CCNC3)ccn2)c1 5.00 to 5.52

What about this compound? CN1CCN(c2cc(C(=O)Nc3cccc(C4(Cc5nncn5C)COC4)c3)nc(C3CC3)n2)CC1 > 7.00

Follow-up item: Cn1cnnc1CC1(c2cccc(N3Cc4c(cc(OC5CC5)cc4C(F)(F)F)C3=O)c2)COC1 > 7.00

Try the compound C[C@@H](c1cccc(N2Cc3c(cccc3C(F)(F)F)C2=O)c1)[C@@H](O)c1nncn1C (racemic) 5.52 to 6.00

Do the same for CCOc1cc([C@H](C)Cc2nncn2C)cc(N2Cc3c(cccc3C(F)(F)F)C2=O)n1 please > 7.00

Consider next the compound C[C@H](Cc1nncn1C)c1cccc(N2Cc3c(cc(C(=O)N4CC(O)C4)cc3C3CC3)C2=O)c1 in the same way. > 7.00

Next entry: Cn1cnnc1C(F)(F)[C@](C)(F)c1cccc(N2Cc3c(cc(C(=O)N4CC(C(F)F)C4)cc3C(F)(F)F)C2=O)c1 6.00 to 6.52
